All values here come from ChEMBL document CHEMBL5518181.

Assay comment: Cytotoxicity against human HepG2 cells incubated for 40 hrs by celltiter-glo luminescent cell viability assay
Type: toxicity, cell-based
Quantity name: IC50 at 40 h

INSERT INTO measurements (smiles_repr, experimental_value) VALUES
  ('CC[C@H](C)[C@H](NC(=O)[C@H](CCC(=O)O)NC(=O)[C@H](Cc1ccccc1)NC(=O)[C@@H](CCN)NC(=O)[C@H](CCN)NC(=O)[C@H](CO)NC(=O)[C@@H](Cc1c[nH]c2ccccc12)NC(=O)[C@@H](CO)NC(=O)CNC(=O)[C@@H](CCN)NC(=O)[C@H](N)C(C)C)C(=O)N[C@@H](C(=O)N[C@@H](C)C(=O)O)[C@@H](C)CC', '> 60 µg/mL'),
  ('CC[C@H](C)[C@@H](NC(=O)[C@@H](NC(=O)[C@H](CCC(=O)O)NC(=O)[C@H](Cc1ccccc1)NC(=O)[C@@H](CCN)NC(=O)[C@H](CCN)NC(=O)[C@H](CO)NC(=O)[C@@H](Cc1c[nH]c2ccccc12)NC(=O)[C@@H](CO)NC(=O)CNC(=O)[C@@H](CCN)NC(=O)[C@H](NC(=O)[C@@H](N)CCN)C(C)C)C(C)C)C(=O)N[C@@H](C)C(=O)O', '> 70 µg/mL'),
  ('CC[C@H](C)[C@@H](NC(=O)[C@@H](NC(=O)[C@H](CCC(=O)O)NC(=O)[C@H](Cc1ccccc1)NC(=O)[C@@H](CCN)NC(=O)[C@H](CCN)NC(=O)[C@H](CCN)NC(=O)[C@@H](Cc1c[nH]c2ccccc12)NC(=O)[C@@H](CO)NC(=O)CNC(=O)[C@@H](CCN)NC(=O)[C@H](N)C(C)C)C(C)C)C(=O)N[C@@H](C)C(=O)O', '> 170 µg/mL');

----------
Assay comment: AUClast in Swiss mouse plasma at 10 mg/kg, iv administered as single bolus dose and measured upto 24 hrs by LC-MS/MS analysis
Assay type: ADME, organism-based
Quantity name: AUC(0-t) at 24 h (ng·h/mL)

INSERT INTO assay_data (smiles_repr, experimental_value) VALUES
  ('CC[C@H](C)[C@@H](NC(=O)[C@@H](NC(=O)[C@H](CCC(=O)O)NC(=O)[C@H](Cc1ccccc1)NC(=O)[C@@H](CCN)NC(=O)[C@H](CCN)NC(=O)[C@H](CO)NC(=O)[C@@H](Cc1c[nH]c2ccccc12)NC(=O)[C@@H](CO)NC(=O)CNC(=O)[C@@H](CCN)NC(=O)[C@H](NC(=O)[C@H](C)N)C(C)C)C(C)C)C(=O)N[C@@H](C)C(=O)O', 82500);

----------
IC50 at 40 h values, listed per item
Assay comment: Cytotoxicity against human HepG2 cells incubated for 40 hrs by celltiter-glo luminescent cell viability assay
Type: toxicity, cell-based
Quantity name: IC50 at 40 h (µg/mL)

INSERT INTO results (smiles_repr, inequality_symbol, experimental_value) VALUES
  ('CC[C@H](C)[C@@H](NC(=O)[C@@H](NC(=O)[C@H](CCC(=O)O)NC(=O)[C@H](Cc1ccccc1)NC(=O)[C@@H](C)NC(=O)[C@H](CCN)NC(=O)[C@H](CO)NC(=O)[C@@H](Cc1c[nH]c2ccccc12)NC(=O)[C@@H](CO)NC(=O)CNC(=O)[C@@H](CCN)NC(=O)[C@H](NC(=O)[C@H](C)N)C(C)C)C(C)C)C(=O)N[C@@H](C)C(=O)O', '=', 35),
  ('CC[C@H](C)[C@@H](NC(=O)[C@@H](NC(=O)[C@H](CCC(=O)O)NC(=O)[C@H](Cc1ccccc1)NC(=O)[C@@H](CCN)NC(=O)[C@H](CCN)NC(=O)[C@H](CO)NC(=O)[C@@H](Cc1c[nH]c2ccccc12)NC(=O)[C@@H](CO)NC(=O)[C@H](C)NC(=O)[C@@H](CCN)NC(=O)[C@H](N)C(C)C)C(C)C)C(=O)N[C@@H](C)C(=O)O', '>', 170),
  ('CC[C@H](C)[C@@H](NC(=O)[C@@H](NC(=O)[C@H](CCC(=O)O)NC(=O)[C@H](Cc1ccccc1)NC(=O)[C@@H](CCN)NC(=O)[C@H](CCN)NC(=O)[C@H](CO)NC(=O)[C@@H](Cc1c[nH]c2ccccc12)NC(=O)[C@@H](CO)NC(=O)CNC(=O)[C@@H](CCN)NC(=O)[C@H](NC(=O)[C@H](C)NC)C(C)C)C(C)C)C(=O)N[C@@H](C)C(=O)O', '>', 70),
  ('CC[C@H](C)[C@@H](NC(=O)[C@@H](NC(=O)[C@H](CCC(=O)O)NC(=O)[C@H](Cc1c[nH]c2ccccc12)NC(=O)[C@@H](CCN)NC(=O)[C@H](CCN)NC(=O)[C@H](CO)NC(=O)[C@@H](Cc1c[nH]c2ccccc12)NC(=O)[C@@H](CO)NC(=O)CNC(=O)[C@@H](CCN)NC(=O)[C@H](NC(=O)[C@H](C)N)C(C)C)C(C)C)C(=O)N[C@@H](C)C(=O)O', '=', 151),
  ('CC[C@H](C)[C@@H](NC(=O)[C@@H](NC(=O)[C@H](CCC(=O)O)NC(=O)[C@H](Cc1ccccc1)NC(=O)[C@@H](CCN)NC(=O)[C@H](CCN)NC(=O)[C@H](CO)NC(=O)[C@@H](Cc1c[nH]c2ccccc12)NC(=O)[C@@H](CO)NC(=O)CNC(=O)[C@@H](CCN)NC(=O)[C@H](NC(=O)[C@H](C)N)C(C)C)C(C)(C)C)C(=O)N[C@@H](C)C(=O)O', '=', 12),
  ('CC[C@H](C)[C@@H](NC(=O)[C@@H](NC(=O)[C@H](CCC(=O)O)NC(=O)[C@H](Cc1ccccc1)NC(=O)[C@@H](CCN)NC(=O)[C@H](CN)NC(=O)[C@H](CO)NC(=O)[C@@H](Cc1c[nH]c2ccccc12)NC(=O)[C@@H](CO)NC(=O)CNC(=O)[C@@H](CCN)NC(=O)[C@H](NC(=O)[C@H](C)N)C(C)C)C(C)C)C(=O)N[C@@H](C)C(=O)O', '>', 170);
